test: KKLEB cell viability reduction – uHTS, fluorescence assay plates, cytotoxicity control for CF NF-kB inhibitor project, primary screen (AID 602141); details: KKLEB CF airway cells viability, ATPlite luminescence, overnight; at 5 µM; hits give low values; cells stimulated with P. aeruginosa culture filtrate
The whole screen tested about 360,000 compounds, of which about 1,300 (0.36%) were called active. The sample holds actives, similar compounds and a random draw of the others, so the mix is not that of the screen.
Decision: activity change (cytotoxicity) beneath -20% gives true (1); activity change (cytotoxicity) meeting or exceeding -20% gives false (0).

{"COMPOUND": "O=C(NNC(=O)c1ccc(-n2cncn2)c([N+](=O)[O-])c1)c1ccccc1", "CLASS_NAME": "false (0)"}
{"COMPOUND": "COc1ccc(S(=O)(=O)n2cnc3ccccc32)c(C)c1", "CLASS_NAME": "false (0)"}
{"COMPOUND": "O=C(Nc1nc(-c2ccncc2)cs1)C1COc2ccccc2O1 (stereo unspecified)", "CLASS_NAME": "true (1)"}

In plain terms, does COc1ccc(NC(=O)C2Cc3c(-c4ccc5c(c4)OCO5)ccnc3O2)cn1 (stereo unspecified) come in under -20% for activity change (cytotoxicity)?
false (0)

Also, COc1ccc(NC(=O)/C(Cl)=C(/Cl)S(=O)Cc2ccc(C)cc2)cn1 (stereo unspecified) please.
true (1)

Also, CCOc1ccc(NC(=O)COC(=O)C2CCC(=O)N2)c([N+](=O)[O-])c1 (stereo unspecified) please.
false (0)

Entry source: PubChem BioAssay AID602141
